Hi there, I'd appreciate the recorded pIC50 for every entry that follows.
Target: human DPP1 enzyme (Homo sapiens, UniProt P53634)
Sequence (P53634 25-134 limits assumed): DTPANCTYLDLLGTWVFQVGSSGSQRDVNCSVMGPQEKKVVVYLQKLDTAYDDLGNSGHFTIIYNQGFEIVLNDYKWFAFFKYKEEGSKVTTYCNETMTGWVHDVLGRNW
Sequence (P53634 231-394 limits assumed): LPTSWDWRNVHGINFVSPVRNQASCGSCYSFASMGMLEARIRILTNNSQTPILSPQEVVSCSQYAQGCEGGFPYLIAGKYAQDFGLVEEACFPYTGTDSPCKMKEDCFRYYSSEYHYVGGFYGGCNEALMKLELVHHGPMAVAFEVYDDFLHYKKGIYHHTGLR
Sequence (P53634 395-463 limits assumed): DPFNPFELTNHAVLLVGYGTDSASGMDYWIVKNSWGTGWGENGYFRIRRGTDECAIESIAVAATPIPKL
Test: Human DPP1 Enzyme IC50 Assay
Type: biochemical
Set-up: was first proteolytically processed into its mature form using recombinant human cathepsin L; purchased R&D Systems
Conditions: activated recombinant human DPP1, 400 μM H-Gly-Arg-AMC, 10 minutes pre-incubation at 37° C., pH 6.0; average of n runs; read-out: Avg. IC50 (Human DPP1 enzyme IC50 value ranges)
pIC50: −log10 of the molar value.

Q) Which measured pIC50 value corresponds to "Cc1nc(C)c2cc(-c3ccc(C[C@@H](C#N)NC(=O)[C@@H]4CNCCCCO4)cc3)cn2c1C" ?
A) < 7.82

Q) Report pIC50 for CO[C@H]1CCO[C@H](C(=O)N[C@H](C#N)Cc2cc3cc(-c4cc5c(C)nc(C)cn5c4)ccc3s2)CNC1 (single isomer, unassigned) please.
A) < 7.82

Q) Look up pIC50 for this compound: CN1CCC2(CCc3ccc4c(c32)COc2cc(CC(C#N)NC(=O)[C@@H]3CNCCCO3)c(F)cc2-4)CC1 (stereo partly drawn)
A) < 7.82

Q) So what's the measured pIC50 for this one? COC1CNC[C@@H](C(=O)N[C@H](C#N)Cc2ccc(-c3ccc4c(c3)CCC(=O)N4C)cc2)OC1 (stereo partly drawn)
A) > 8.30

Q) Field request: pIC50 | item: "COc1ccc(-c2ccc(C[C@@H](C#N)NC(=O)[C@@H]3CNCCCO3)cc2)cc1-n1cnnc1"
A) < 7.82

Q) Item "CO[C@@H]1CCNC[C@@H](C(=O)N[C@H](C#N)Cc2ccc(-c3cc4c(C)nc(C)cn4c3)cc2F)OC1" has what recorded pIC50?
A) > 8.30

Q) Given the compound "CCN1C(=O)Cc2ccc(-c3ccc(C[C@@H](C#N)NC(=O)[C@@H]4CNCCCO4)cc3)cc21" , what is its reported pIC50?
A) < 7.82

Q) Given the entry "N#C[C@H](Cc1ccc(-c2cc3cnccn3c2)cc1)NC(=O)[C@@H]1CNCCCO1" , report its measured pIC50.
A) < 7.82

Q) # input compound: "CO[C@@H]1CNC[C@@H](C(=O)N[C@H](C#N)Cc2ccc(-c3cc4c(C)nc(C)cn4c3)cc2F)OC1" ; wanted: its pIC50
A) < 7.82

Q) Consider the compound shown here: "N#C[C@H](Cc1ccc(-c2ccc3c(c2)CCS3)cc1)NC(=O)[C@@H]1CNCCCO1" What is its recorded pIC50?
A) < 7.82

Q) Return reported pIC50; argument: N#CC(Cc1cc2c(cc1F)-c1ccc(F)cc1CO2)NC(=O)[C@@H]1CNCCCCO1 (mixture of isomers)
A) < 7.82

Q) Quick check: pIC50 of CO[C@@H]1CCNC[C@@H](C(=O)NC(C#N)Cc2cc3c(cc2F)-c2ccc(C#N)cc2CO3)OC1 (mixture of isomers) ?
A) > 8.30

Q) Given the entry "CO[C@@H]1CCNC[C@@H](C(=O)N[C@H](C#N)Cc2ccc(-c3ccc4c(c3)CCC(=O)N4C)cc2)OC1" , report its measured pIC50.
A) > 8.30

Q) What value of pIC50 has been recorded for this entry: "CN1C(=O)CCc2cc(-c3ccc(C[C@@H](C#N)NC(=O)[C@@H]4CNCC[C@@H](F)CO4)cc3)ccc21"
A) < 7.82

Q) What does the data say about its pIC50? Entry: "N#C[C@H](Cc1ccc(-c2cncc3[nH]c(=O)[nH]c23)cc1)NC(=O)[C@@H]1CNCCCO1"
A) < 7.82

Q) What value of pIC50 has been recorded for this entry: "N#C[C@H](Cc1ccc(-c2cc3c(F)nccn3c2)cc1)NC(=O)[C@@H]1CNCCCO1"
A) < 7.82

Q) May I ask what pIC50 has been recorded for "CO[C@@H]1CCNC[C@@H](C(=O)N[C@H](C#N)Cc2ccc(-c3cc4c(C)nc(C)cn4c3)c(F)c2)OC1" ?
A) 7.82 to 8.30

Q) So what does the record say about pIC50 for "Cc1nc(C)c2cc(-c3ccc(C[C@@H](C#N)NC(=O)[C@@H]4CNCCCO4)cc3)cn2c1C" ?
A) < 7.82

Q) Value lookup for pIC50; key = N#Cc1ccc2c(c1)COc1cc(C[C@@H](C#N)NC(=O)[C@@H]3CNCCCCO3)c(F)cc1-2 (single isomer, unassigned)
A) < 7.82

Q) Bench note: what pIC50 did N#C[C@H](Cc1ccc(-c2ccc(-c3nnc(N)s3)o2)cc1)NC(=O)[C@@H]1CNCCCO1 [Compound D1] show?
A) < 7.82

Q) Reported pIC50, compound "Cn1c(=O)ccc2ncc(-c3ccc(C[C@@H](C#N)NC(=O)[C@@H]4CNCCCO4)cc3)cc21" : ____
A) < 7.82

Data provenance: patent US20260008760A1
